- targetEntity: T1, Grasp55 PDZI (1-79), yeast two-hybrid construct (murine, UniProt Q99JX3 1-79)
- T1 construct: also called isolated first PDZ domain
- assayMethodText: yeast two-hybrid, growth on selective medium
quantity: binding result

Below: 6 binders and their reported binding result.
TCYAQRKGYFSKETSFQKGSPASKVTTMSENDFKHTKS (other, End at 295 worked out from 'deletion of the last three amino-acids' of 258-298; not shown: Gal4 domain of the two-hybrid vector) [JAM-B ΔPDZbm, yeast two-hybrid construct lacking the last three amino-acids] = no binding
ADAM10 C-terminal sequence, yeast two-hybrid construct (other, not shown: Gal4 domain of the two-hybrid vector) FIKICSVHTPSSNPKLPPPKPLPGTLKRRRPPQPIQQPPRQRPREYQMGHMRR = no binding
ADAM17 C-terminal sequence, yeast two-hybrid construct (other, not shown: Gal4 domain of the two-hybrid vector) CVDKKLDKQYESLSLFHHSNIEMLSSMDSASVRIIKPFPAPQTPGRLQALQPAAMMPPVSAAPKLDHQRMDTIQEDPSTDSHVDDDGFEKDPFPNSSTAAKSFEDLTDHPVTRSEKAASFKLQRQSRVDSKETEC = no binding
AYSRGYFETTKKGTAPGKKVIYSQPSTRSEGEFKQTS (other, End at 296 worked out from 'deletion of the last three amino-acids' of 260-299; not shown: Gal4 domain of the two-hybrid vector) [JAM-A ΔPDZbm, yeast two-hybrid construct lacking the last three amino-acids] = no binding
ICCAYRRGCFISSKQDGESYKSPGKHDGVNYIRTSEEGDFRHKSSFVI (other, also called JAM-C C-terminal region; not shown: Gal4 domain of the two-hybrid vector) [JAM-C cytoplasmic C-terminal construct, yeast two-hybrid] = no binding
TCYAQRKGYFSKETSFQKGSPASKVTTMSENDFKHTKSFII (other, not shown: Gal4 domain of the two-hybrid vector) [JAM-B cytoplasmic C-terminal construct, yeast two-hybrid] = no binding

Now for a further binder.
Q: I'd like to know its binding result. The binder in question is ICCAYRRGCFISSKQDGESYKSPGKHDGVNYIRTSEEGDFRHKSS (other, End at 307 worked out from 'deletion of the last three amino-acids' of 263-310; not shown: Gal4 domain of the two-hybrid vector) [JAM-C ΔPDZbm, yeast two-hybrid construct lacking the last three amino-acids]
Ans: no binding
